Biological target: T1, PUF4 RNA-binding domain (Saccharomyces cerevisiae, UniProt P25339 537-888)
T1 sequence: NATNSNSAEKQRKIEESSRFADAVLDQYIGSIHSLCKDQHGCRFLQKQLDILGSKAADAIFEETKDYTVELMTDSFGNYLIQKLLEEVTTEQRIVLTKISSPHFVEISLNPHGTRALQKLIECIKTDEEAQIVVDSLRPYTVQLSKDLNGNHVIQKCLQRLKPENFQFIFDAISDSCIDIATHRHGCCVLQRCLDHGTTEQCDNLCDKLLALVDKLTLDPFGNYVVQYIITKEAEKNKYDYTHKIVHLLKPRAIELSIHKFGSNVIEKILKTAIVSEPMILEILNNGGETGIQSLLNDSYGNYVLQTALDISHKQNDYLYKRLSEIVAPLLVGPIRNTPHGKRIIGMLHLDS
Test: Mg; RNA-MaP; 20 mM Na-HEPES pH 7.4, 30 mM KOAc, 0.75 mM MgCl2, 0.1% Tween-20, 5% glycerol, 0.1 mg/mL BSA, 2 mM DTT; 25 C; 0.0125-409.6 nM protein
Settings: tags: N-His6-TEV cleaved; C-SNAP kept, Cy3B-labelled; label: tethered on chip by stalled RNA polymerase
Measured log10 of Kd of individual entries
Log scale reminder: Kd in nM, then log10 taken.

See these solved cases before continuing.
Ie_S4_P5E.1_K5.1_C5.1_H5.1_[+4CTC]_A5.1_F5.1_T5.1 (ssRNA) RNA: UUUGACAACUGAUCGUUCUUUCUUGUACUCUUAUUAUUCUUUCUCGAUCAGUUGUCUUU ... 0.46
Id_ii_S2_P4E.3_K4.2_C4.2_[C-2A]_H4.2_A4.1_F4.1_T4.2_[G10C]_[T11C] (ssRNA) RNA: UUUGAUUAAUAUGAUAUCGUUCUUUCUAUUAUAUAUUACCUUCUUUCUCGAUAUCAUAUUAAUCUUU ... 1.11
UCUCUUUCUAUAUAUUAAAUCUCUU (ssRNA) [Id_ii_S1_P4E.3_K4.2_C4.2_[C-2T]_[T-1C]_H4.2_A4.1_F4.1_T4.2_[G10A]_[T11A]] ... 1.79

Problem: Look up and state reported log10 of Kd for Ie_S4_P3E.2_K3.1_C3.2_[+-1TTT]_H3.1_A3.1_F3.1_T3.2 (ssRNA) RNA: UUUGACAACUGAUCGUUCUUUCUCUUUUUGUAUAUAUAUUCUUUCUCGAUCAGUUGUCUUU
Result: 0.01

Problem: Look up and state reported log10 of Kd for Ic_S2_P4E.1_K4.1_C4.1_H4.1_A4.1_[T5C]_[A6T]_F4.1_[T8A]_[A9C]_T4.1 (ssRNA) RNA: UUUGAUUAAUAUGAUAUCGUUCUUUCUUGUACUUACUUCUUUCUCGAUAUCAUAUUAAUCUUU
Result: 1.93

Problem: Look up and state reported log10 of Kd for Id_ii_S2_P5E.2_K5.1_C5.2_[C-2T]_[T-1C]_H5.1_A5.1_F5.1_T5.2_[A12C] (ssRNA) RNA: UUUGAUUAAUAUGAUAUCGUUCUUUCUUCUGUAUUAUUAUCUUCUUUCUCGAUAUCAUAUUAAUCUUU
Result: 0.47

Problem: Look up and state reported log10 of Kd for Ic_S2_P4E.1_K4.1_C4.1_H4.1_A4.1_[A6G]_[T7G]_F4.1_[T8C]_[A9T]_T4.1 (ssRNA) RNA: UUUGAUUAAUAUGAUAUCGUUCUUUCUUGUAUGGCUUUCUUUCUCGAUAUCAUAUUAAUCUUU
Result: 2.79

Problem: Look up and state reported log10 of Kd for Id_iii_S4_P5E.7_K5.3_C5.3_[T-1C]_H5.3_A5.1_F5.1_T5.2 (ssRNA) RNA: UUUGACAACUGAUCGUUCUUUCUUCCACACUUAUUAUAUUCUUUCUCGAUCAGUUGUCUUU
Result: 2.73
